The following compounds have recorded Kd on AuroraB (Homo sapiens).
Sequence (Q96GD4 whole entry): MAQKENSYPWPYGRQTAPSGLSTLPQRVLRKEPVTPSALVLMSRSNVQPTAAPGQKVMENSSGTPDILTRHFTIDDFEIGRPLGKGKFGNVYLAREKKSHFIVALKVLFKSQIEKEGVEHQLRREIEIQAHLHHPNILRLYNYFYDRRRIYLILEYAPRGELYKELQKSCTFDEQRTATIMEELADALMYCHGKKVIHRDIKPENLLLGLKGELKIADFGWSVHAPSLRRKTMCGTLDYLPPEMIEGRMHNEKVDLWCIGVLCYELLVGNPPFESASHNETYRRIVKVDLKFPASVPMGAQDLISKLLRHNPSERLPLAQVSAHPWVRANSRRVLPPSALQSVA
Where a name gives a salt, the structure may show the parent alone.
MEASURED_METRIC: Kd

{"columns": ["COMPOUND", "RESULT"],
 "data": [
  ["Cc1cc(Nc2nc(C(O)c3ccc(F)cc3)nc3cc(F)ccc23)n[nH]1 (racemic)", "> 200 nM"],
  ["Cc1cc(Nc2nc(C(O)c3ccc(F)cc3)nc3cccc(F)c23)n[nH]1 (racemic)", "> 200 nM"],
  ["Cc1cc(Nc2nc(C(O)c3ccc(F)cc3)nc3c(C)cccc23)n[nH]1 (racemic)", "> 200 nM"],
  ["COc1cccc2c(Nc3cc[nH]n3)nc(C(=O)c3ccc(F)cc3)nc12", "50 to 200 nM"],
  ["Cc1cc(Nc2nc(C(O)(c3ccc(F)cc3)c3ccc(F)cc3)nc3ccccc23)n[nH]1", "> 200 nM"],
  ["Cc1cc(Nc2nc(C(F)(F)c3ccc(F)cc3)nc3cc(F)ccc23)n[nH]1", "> 200 nM"],
  ["Cc1cc(Nc2nc(C(O)c3ccc(F)cc3)nc3cc(OCCO)ccc23)n[nH]1 (racemic)", "> 200 nM"],
  ["Fc1ccc(C(F)c2nc(Nc3cc[nH]n3)c3ccccc3n2)cc1 (racemic)", "> 200 nM"],
  ["Cc1cc(Nc2nc(C(O)c3ccc(F)cc3)nc3cc(O)ccc23)n[nH]1 (racemic)", "20 to 50 nM"],
  ["Cc1cc(Nc2nc(C(O)c3ccc(F)cc3)nc3cc(C(F)(F)F)ccc23)n[nH]1 (racemic)", "> 200 nM"],
  ["O=C(c1cccc(F)c1)c1nc(Nc2cc[nH]n2)c2ccccc2n1", "> 200 nM"],
  ["Cc1cc(Nc2nc(C(O)c3ccc(F)cc3)nc3ccccc23)n[nH]1 (racemic) [Example 12, hydrochloride]", "50 to 200 nM"],
  ["N#Cc1cc(Nc2nc(C(O)c3ccc(F)cc3)nc3ccccc23)n[nH]1 (racemic)", "> 200 nM"],
  ["Cc1cc(Nc2nc(C(F)(F)c3ccc(F)cc3)nc3c(F)cccc23)n[nH]1", "> 200 nM"],
  ["Cc1cc(Nc2nc(C(O)c3ccc(F)cc3)nc3cc(OCCCO)ccc23)n[nH]1 (racemic)", "> 200 nM"],
  ["Cc1cc(Nc2nc(C(F)(F)c3ccc(F)cc3)nc3cc(CS(C)(=O)=O)ccc23)n[nH]1", "> 200 nM"],
  ["Cc1cc(Nc2nc(C(O)c3ccc(F)cc3)nc3cc(OC4CCNCC4)ccc23)n[nH]1 (stereo not drawn)", "> 200 nM"],
  ["Cc1ccc2c(Nc3cc(C)[nH]n3)nc(C(F)(F)c3ccc(F)cc3)nc2c1", "> 200 nM"]
]}
